Value source: patent US20250026849A1

Kindly supply the reported ELISA_avg values for the records listed here.
# TESTED SYSTEM: T1, BCMA (Homo sapiens (Human), UniProt Q02223 1-54, limits assumed)
# T1 sequence: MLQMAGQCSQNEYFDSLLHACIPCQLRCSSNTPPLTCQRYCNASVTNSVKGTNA
# TEST DETAILS: ELISA, format not described
# Set-up: unit not given here
One number for each entry.

Below, 3 binders whose answers are already recorded.
D-domain SEQ ID NO: 235 (designed binder) MGSWYNFKHRLAIIKWYLEALGGSEAELARFENFIANFETQLQLYKGKGNPEVEALRKEAAAIRDELQAYRHN: 6.76
D-domain SEQ ID NO: 204 (designed binder) MGSWFEFWDRLAAIRDRLEALGGSEAELAAFEKEIAAFESELQAYKGKGNPEVEDLRYVAAKIRVRLQAYRHN: 12.8
D-domain SEQ ID NO: 260 (designed binder) MGSWEQFKYRLAIIKYMLEALGGSEAELAWFESWIANFESDLQHYKGKGNPEVEALRKEAAAIRDELQAYRHN: 11

Below is a list of binders. For each, state its recorded ELISA_avg.
1. D-domain SEQ ID NO: 47 (designed binder) MGSWHEFAWRLQAINQRLNALGGSEAELAAFEKEIAAFESELQAYKGKGNPEVEELRHYAAHIRNGLQAYRHN
2. D-domain SEQ ID NO: 241 (designed binder) MGSWNSFKHRLALIKWYLEALGGSEAELATFEWYIASFESELQQYKGKGNPEVEALRKEAAAIRDELQAYRHN

[13.1, 10.3]
